- Experimental Protocol: growth of efflux-deficient E. coli DRC39 – strain DRC39, OD650, 48 h, E. coli filamentation inducers, primary screen (AID 1179);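 further: screen aims at cell division blockers that make cells filament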
- Assay Conditions: E. coli DRC39 delta-acrAB growth, higher = more signal, called active from +8 up or from −8 down
Calls of active or inactive are those of the source.
Quick reference for z-score among some compounds
Recorded Endpoint: z-score

Compound | Result
COCCOC(=O)N1C(=O)[C@@]2(c3ccccc31)[C@H](C(=O)NC[C@H](O)c1ccccc1)[C@H]1C(=O)O[C@H](c3ccccc3)[C@H](c3ccccc3)N1[C@@H]2c1ccc(O)cc1 | -0.803 (inactive)
C=CC[C@H](OC(=O)Nc1ccc(SC)cc1)c1ccc(O)c2ccccc12 | -0.772 (inactive)
CC(c1ccccc1)C(O)C1C=CC2C(=O)N(C)C(=O)C2N1Nc1ccccc1 (centres undefined) | -0.374 (inactive)
C=CC[C@]1(C(=O)N2CCCCC2)N=C(c2ccc(OCCCO)cc2)O[C@H]1c1ccccc1CN=[N+]=[N-] | 1.11 (inactive)

====

- Test Target: NADPH oxidase 5 (Homo sapiens)
- Experimental Protocol: compounds shifting NOX5 Amplex Red fluorescence – cell-based, HEK293-NOX5, NOX inhibitor project, primary screen (AID 1161)
- Assay Conditions: HEK293-NOX5, ionomycin, 45 min, higher = more signal
Reported z-score values follow for various molecules
Recorded Endpoint: z-score

Molecule | Recorded Number
Cc1ccc(S[C@]2(C(=O)O)CC(=O)N(C3CCCCC3)[C@@H]2c2ccc(CO)cc2I)cc1 | -1.86
CN(C)C(=O)[C@@]1(Cc2ccccc2CN=[N+]=[N-])N=C(c2ccc(OCCCO)cc2)O[C@H]1c1ccccc1N=[N+]=[N-] | -2.56
CC(C)(C)OC(=O)COc1cccc(C(=O)CCN2CCOCC2)c1 | 2.12
CO[C@H]1O[C@H](CO)[C@@H](OC(=O)Nc2ccccc2)[C@H](OC(=O)c2cc3ccccc3[nH]2)[C@H]1OC(=O)c1cc2ccccc2[nH]1 | -2.16
[N-]=[N+]=Nc1ccccc1[C@H]1OC(c2ccc(OCCCO)cc2)=N[C@@]1(Cc1ccccc1)C(=O)NCCN1CCOCC1 | 1.57
O=C1CS(=O)(=O)C(c2cccc([N+](=O)[O-])c2)N1c1ccccc1 (configuration not stated) | 1.79
COc1ccc([Si](C)(C)[C@@H]2[C@@H](CC(=O)N(CCO)Cc3ccccc3)O[C@]3(C(=O)N(Cc4cccc(N5CCCCC5=O)c4)c4ccccc43)[C@H]2C)cc1 | 3.58

====

- Test Target: Follistatin (Homo sapiens)
- Experimental Protocol: FST protein binding to printed compounds – biochemical, small-molecule microarray, 635/667 nm fluorescence, primary screen (AID 1132)
- Assay Conditions: 635 nm fluorescence, higher = more signal

Molecule | Test Target | composite z-score
CC(c1ccccc1)C(O)C1C=CC2C(=O)N(C)C(=O)C2N1Nc1ccccc1 (centres undefined) | Follistatin (Homo sapiens) | 0.777
O=C1N(CCS(=O)(=O)c2ccccc2)c2ccccc2[C@H]2OC(c3ccc(OCCCO)cc3)=N[C@@]12Cc1ccccc1 | Follistatin (Homo sapiens) | 1.54
COc1cc2c(cc1O)C(c1cccs1)N(Cc1cc3c(cc1Br)OCO3)CC2 (centres undefined) | Follistatin (Homo sapiens) | 1.08
COC(=O)[C@@]1(Cc2ccc(OC)cc2)[C@H]2c3cc(C(=O)N4CCCC4)n(CCO)c3C[C@H]2CN1C(=O)c1ccccc1 | Follistatin (Homo sapiens) | 0.113
COCC(=C=CC[C@H](O)c1ccc(OCCO)cc1)CCO | Follistatin (Homo sapiens) | 1.41
NC(=O)[C@@]1(Cc2ccccc2)COC(c2ccc(OCCCO)cc2)=N1 | Follistatin (Homo sapiens) | -0.0248
O[C@@H](Cc1ccccc1)[C@@H](/C=C/C1CC1)N(CC#Cc1ccccc1)Cc1ccccc1Br | Follistatin (Homo sapiens) | -1.12
N[C@@H](Cc1ccccc1)C(=O)NCc1cn(Cc2ccccc2)nn1 | Follistatin (Homo sapiens) | 1.15
[N-]=[N+]=Nc1ccccc1C[C@]1(C(=O)O)COC(c2ccc(OCCCO)cc2)=N1 | Follistatin (Homo sapiens) | -0.224

====

- Experimental Protocol: optical density change of DRC41 E. coli – strain DRC41, OD650, 24 h, E. coli filamentation project, primary screen (AID 1093);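 further: MC1000 strain lacking acrAB efflux and sulA so SOS filamentation is blocked; test concentration not given here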
- Assay Conditions: E. coli DRC41 growth, higher = more signal, called active from +8 up or from −8 down
Classify as follows. Reported z-score greater than or equal to 0.06: label 1. Reported z-score below: label 0.

Molecule | Class Label
O=C(O)[C@@H]1[C@@H]2C(=O)N(c3ccccc3)C(=O)[C@@H]2C[C@@H]1Sc1ccccc1 | label 0
CCCCN1CC=CC23O[C@@H]4/C=C\CCC(C)OC(=O)C4[C@H]2C(=O)N(CCCO)[C@@H]3C1=O (some centres not stated) | label 1
CCCC=C(CCC)[C@@H](NS(=O)(=O)CC12CCC(CC1=O)C2(C)C)c1ccc(C(=O)OC)cc1 (some centres not stated) | label 1
[N-]=[N+]=Nc1ccccc1C[C@]1(C(=O)O)COC(c2ccc(OCCCO)cc2)=N1 | label 0
Cn1cccc1C(O)C1C=CC2C(=O)N(c3ccccc3)C(=O)C2N1Nc1ccccc1 (configuration not stated) | label 0
CC(C)[Si](C#C[Si](C(C)C)(C(C)C)C(C)C)(O[C@H](c1ccccc1)c1cn(Cc2ccccc2)nn1)C(C)C | label 1
COC(=O)[C@@H]1N=C(c2ccc(OCCCO)cc2)O[C@@H]1C | label 1

====

// reported composite z-score for each item listed
- System: Plasmodium falciparum Sir2 (PF13_0152, Sir2A)
- Experimental Protocol: Plasmodium falciparum Sir2A binding compounds – biochemical, small-molecule microarray, 635 nm fluorescence, primary screen (AID 1098);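 further: score merges spot fluorescence intensity with its signal-to-noise ratio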
- Assay Conditions: fluorescence 635 nm, higher = more signal
Recorded Endpoint: composite z-score

Compound | Recorded Number
CCCCCN1CC=CC23O[C@@H]4/C=C\CCCOC(=O)C4[C@H]2C(=O)N(C(C)CO)[C@@H]3C1=O (some centres undefined) | 2.01
CCCN1C(=O)[C@@]2(Cc3ccccc31)N=C(c1ccc(OCCCO)cc1)O[C@H]2c1ccccc1 | 1.48
CN(C)C(=O)[C@]1(CCC(=O)OC(C)(C)C)N=C(c2ccc(OCCCO)cc2)O[C@@H]1c1ccccc1CN=[N+]=[N-] | 1.45
COC(=O)[C@@]1(Cc2ccc(OC)cc2)[C@H]2c3cc(C(=O)N4CCCC4)n(CCO)c3C[C@H]2CN1C(=O)c1ccccc1 | 0.333
CCCCCCCCCCC(O)C1C=CC2C(=O)N(c3ccccc3)C(=O)C2N1Nc1ccc(C#N)cc1 (centres undefined) | 0.905
C=CCNC(=O)[C@@H]1[C@H]2C(=O)O[C@H](c3ccccc3)[C@H](c3ccccc3)N2[C@H](c2ccccc2OCCO)[C@@]12C(=O)N(C(=O)OCCOC)c1ccc(C#CC3(O)CCCCCC3)cc12 | 1.17
C=C(COC)/C(=C/C[C@H](OC(=O)c1ccncc1)c1ccccc1OCCO)c1cc(C(=O)OC)ccc1OC | 0.515
COC(=O)[C@@]1(Cc2ccc(OC)cc2)[C@H]2c3cc(C(=O)N(C)C)n(Cc4ccc(OC(F)(F)F)cc4)c3C[C@H]2CN1C(=O)c1ccccc1 | 0.518
O=C1CS(=O)(=O)C(c2cccc([N+](=O)[O-])c2)N1c1ccccc1 (centres undefined) | 0.175
[N-]=[N+]=Nc1ccccc1C[C@]1(C(=O)NCC(O)CO)COC(c2ccc(OCCCO)cc2)=N1 (some centres undefined) | 0.989
CCOC(=O)C[C@H]1[C@H](OC(=O)c2ccc(C(=O)c3ccccc3)cc2)[C@@H](NC(=O)C2CCCCC2)c2cc(OCCCO)ccc2N1C(=O)c1ccc2ccccc2n1 | 0.698
O=C1O[C@@H](c2ccccc2)[C@@H](c2ccccc2)N2[C@@H](c3ccc(OCCO)cc3)[C@]3(C(=O)Nc4ccc(C#CC5=CCCCC5)cc43)[C@@H](C(=O)NC[C@H](O)c3ccccc3)[C@H]12 | 0.674
C=C(/C(=C/C[C@H](OC(C)=O)c1ccc(CO)o1)c1cnc2ccccc2c1)C(C)C | 1.1
C=CCC(OC(C)=O)[C@@H]1[C@@H](N(Cc2ccc(-c3ccccc3)cc2)C(=O)c2ccc(-c3ccccc3)cc2)c2cc(OCCCO)ccc2N1C(=O)c1ccc2ccccc2c1 (some centres undefined) | -0.519

====

- Experimental Protocol: hepatitis C replication reporter changes, two-sided – Huh7 cells, luciferase reporter, HCV replication inhibitor project, primary screen (AID 1109);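 further: huh7 hepatoma cells harbouring a luciferase neomycin HCV replicon reporter; luciferase luminescence as measure of HCV replicon replication; test concentration not given here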
- Assay Conditions: Huh7 HCV replicon luciferase reporter, 48 h; higher = more signal
I would appreciate it if you labelled entries 1 when z-score is -0.4 or higher, otherwise 0.

Molecule | Class Label
COC(=O)[C@@H]1N=C(c2ccc(OCCCO)cc2)O[C@@H]1c1ccccc1 | 0
COc1cc2c(cc1O)C=[N+](Cc1sc3ccccc3c1Cl)CC2 | 0
C=CCC(OC(C)=O)[C@@H]1[C@@H](N(Cc2cc3ccccc3o2)C(=O)Cc2ccc(F)cc2)c2cc(OCCCO)ccc2N1C(=O)Cc1ccc2ccccc2c1 (stereo not given in full) | 1
COc1ccc(CCNC(=O)[C@@]2(Sc3ccc(C)cc3)CC(=O)N(Cc3ccccc3C(F)(F)F)[C@@H]2c2ccc(CO)cc2I)cc1 | 0
CC1CC/C=C\[C@H]2OC34C=CCN(c5ccc(Cl)cc5)C(=O)[C@H]3N(C(C)CO)C(=O)[C@]4(C)C2C(=O)O1 (stereo not given in full) | 0
COc1ccc([Si](C)(C)[C@@H]2[C@@H](CCO)O[C@]3(C(=O)N(Cc4ccccc4)c4ccc(N5C(=O)c6cccc7cccc5c67)cc43)[C@H]2C)cc1 | 0
CCCC1(C(=O)OC)C=C2C(=C(C)C(=O)C2C)CN1 (stereo not given) | 0
CO[C@H]1O[C@H](CO)[C@@H](OC(=O)Nc2ccc3c(c2)OCO3)[C@H](OC(=O)Nc2ccc3c(c2)OCO3)[C@@H]1OC(=O)Nc1ccc2c(c1)OCO2 | 1
CC1CC/C=C\[C@H]2OC34C=CCN(Cc5ccccc5)C(=O)[C@H]3N(C(CO)C(C)C)C(=O)[C@@H]4C2C(=O)O1 (stereo not given in full) | 1
O[C@@H](Cc1ccccc1)[C@@H](/C=C/C1CC1)N(CC#Cc1ccccc1)Cc1ccccc1Br | 0
O=C1O[C@@H](c2ccccc2)[C@@H](c2ccccc2)N2[C@@H](c3ccc(O)cc3)[C@]3(C(=O)Nc4ccc(C#CCCO)cc43)[C@@H](C(=O)N3CCN(c4ncccn4)CC3)[C@H]12 | 0
COCCCNC(=O)[C@@H]1c2ccccc2C(=O)N(C(C)C)[C@H]1c1ccc(CO)cc1 | 1
COc1ccc(CCNC(=O)[C@@]2(c3ccc([N+](=O)[O-])cc3)CC(=O)N(C3CCCCC3)[C@@H]2c2ccc(CO)cc2)cc1 | 0
COCCOC(=O)N1C(=O)[C@@]2(c3cc(C#CCNC(N)=O)ccc31)[C@H](C(N)=O)[C@H]1C(=O)O[C@H](c3ccccc3)[C@H](c3ccccc3)N1[C@@H]2c1ccccc1OCCO | 0
[N-]=[N+]=NCc1ccccc1C[C@@]1(C(N)=O)N=C(c2ccc(OCCCO)cc2)O[C@@H]1c1ccccc1 | 0
